Biological target: FLT ligand-induced wild-type FLT3 phosphorylation in Baf3 FLT3 cells (Homo sapiens, UniProt P36888)
Sequence (P36888 27-993): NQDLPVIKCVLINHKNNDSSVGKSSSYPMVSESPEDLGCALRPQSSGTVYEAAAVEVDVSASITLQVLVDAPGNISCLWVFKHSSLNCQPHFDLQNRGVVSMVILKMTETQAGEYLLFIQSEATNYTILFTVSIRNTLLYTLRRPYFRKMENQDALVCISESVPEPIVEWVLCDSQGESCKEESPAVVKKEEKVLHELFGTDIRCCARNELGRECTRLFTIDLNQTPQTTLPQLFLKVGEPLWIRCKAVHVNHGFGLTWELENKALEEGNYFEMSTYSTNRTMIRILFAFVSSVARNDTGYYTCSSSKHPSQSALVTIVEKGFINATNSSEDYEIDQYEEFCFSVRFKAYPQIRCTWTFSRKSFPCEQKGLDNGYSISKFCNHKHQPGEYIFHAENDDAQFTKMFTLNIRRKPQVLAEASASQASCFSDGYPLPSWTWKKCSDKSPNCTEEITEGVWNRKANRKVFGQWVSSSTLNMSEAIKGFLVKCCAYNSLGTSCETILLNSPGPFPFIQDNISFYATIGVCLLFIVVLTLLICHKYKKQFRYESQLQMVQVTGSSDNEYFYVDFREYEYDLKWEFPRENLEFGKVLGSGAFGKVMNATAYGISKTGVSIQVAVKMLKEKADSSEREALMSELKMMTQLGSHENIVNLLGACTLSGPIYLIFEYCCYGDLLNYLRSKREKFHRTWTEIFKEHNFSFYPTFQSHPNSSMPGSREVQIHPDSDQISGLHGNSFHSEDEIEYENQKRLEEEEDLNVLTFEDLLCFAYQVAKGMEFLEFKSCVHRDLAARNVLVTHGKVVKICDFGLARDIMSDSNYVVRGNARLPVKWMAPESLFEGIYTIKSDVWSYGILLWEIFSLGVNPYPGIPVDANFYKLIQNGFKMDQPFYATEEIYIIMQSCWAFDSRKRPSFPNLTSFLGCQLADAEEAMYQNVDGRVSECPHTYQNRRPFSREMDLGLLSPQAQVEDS
Experiment: Cell-based FLT3 receptor ELISA
Lab note: compare IC50 with 100 nM, writing 1 if less and 0 if equal or more.

[[record]]
molecule = "CO/N=C/c1c(N)ncnc1N1CCN(C(=O)Cc2ccc(C(C)C)cc2)CC1 [Compound 7]"
class_assignment = 1

[[record]]
molecule = "NCCO/N=C/c1c(N)ncnc1N1CCN(C(=O)Nc2ccc(N3CCOCC3)cc2)CC1 [Compound 32]"
class_assignment = 1

[[record]]
molecule = "CO/N=C/c1c(N)ncnc1N1CCCN(C(=O)Nc2ccc(OC(C)C)cc2)CC1 [Compound 24]"
class_assignment = 1

[[record]]
molecule = "NCCO/N=C/c1c(N)ncnc1N1CCN(C(=O)Nc2ccc(OC3CCC3)nc2)CC1 [Compound 31]"
class_assignment = 0

[[record]]
molecule = "CCO/N=C\\c1c(N)ncnc1N1CCN(C(=O)Cc2ccc(C(C)C)cc2)CC1 [Compound 14]"
class_assignment = 0

[[record]]
molecule = "CCO/N=C/c1c(N)ncnc1N1CCN(C(=O)Nc2ccc(N3CCOCC3)cc2)CC1 [Compound 15]"
class_assignment = 0

[[record]]
molecule = "CCO/N=C/c1c(N)ncnc1N1CCN(C(=O)Cc2ccc(C(C)C)cc2)CC1 [Compound 13]"
class_assignment = 0

